procedure summary: logP determination by HPLC on a reversed-phase column (C18), EEC Directive 79/831 Annex V.A8
Assay type: physicochemical
stated conditions: HPLC-MS, reversed-phase column (C18)
# log P per entry

structure smiles string	log P
Cc1cc(C(F)(C(F)(F)F)C(F)(F)F)cc(C)c1-n1cc(-c2cnc(C3CC3)c(C(=O)N(C)C3CC3)c2)cn1	4.6
CCS(=O)(=O)c1cc(C(F)(F)F)cc(Cl)c1-n1cc(-c2ccc(Cl)c(C(=O)NC3CC3)c2)cn1	3.2
O=C(NC1CC1)c1cc(-c2cnn(-c3c(Cl)cc(C(F)(C(F)(F)F)C(F)(F)F)cc3Cl)c2)cnc1NC1CC1	3.4
